# Study Target: BMPR2A (Homo sapiens, UniProt Q13873)
# Construct: purchased in-house DSF kinase panel (SGC-style construct names; the trailing letter is the construct ID)
# Sequence (Q13873 27-1038): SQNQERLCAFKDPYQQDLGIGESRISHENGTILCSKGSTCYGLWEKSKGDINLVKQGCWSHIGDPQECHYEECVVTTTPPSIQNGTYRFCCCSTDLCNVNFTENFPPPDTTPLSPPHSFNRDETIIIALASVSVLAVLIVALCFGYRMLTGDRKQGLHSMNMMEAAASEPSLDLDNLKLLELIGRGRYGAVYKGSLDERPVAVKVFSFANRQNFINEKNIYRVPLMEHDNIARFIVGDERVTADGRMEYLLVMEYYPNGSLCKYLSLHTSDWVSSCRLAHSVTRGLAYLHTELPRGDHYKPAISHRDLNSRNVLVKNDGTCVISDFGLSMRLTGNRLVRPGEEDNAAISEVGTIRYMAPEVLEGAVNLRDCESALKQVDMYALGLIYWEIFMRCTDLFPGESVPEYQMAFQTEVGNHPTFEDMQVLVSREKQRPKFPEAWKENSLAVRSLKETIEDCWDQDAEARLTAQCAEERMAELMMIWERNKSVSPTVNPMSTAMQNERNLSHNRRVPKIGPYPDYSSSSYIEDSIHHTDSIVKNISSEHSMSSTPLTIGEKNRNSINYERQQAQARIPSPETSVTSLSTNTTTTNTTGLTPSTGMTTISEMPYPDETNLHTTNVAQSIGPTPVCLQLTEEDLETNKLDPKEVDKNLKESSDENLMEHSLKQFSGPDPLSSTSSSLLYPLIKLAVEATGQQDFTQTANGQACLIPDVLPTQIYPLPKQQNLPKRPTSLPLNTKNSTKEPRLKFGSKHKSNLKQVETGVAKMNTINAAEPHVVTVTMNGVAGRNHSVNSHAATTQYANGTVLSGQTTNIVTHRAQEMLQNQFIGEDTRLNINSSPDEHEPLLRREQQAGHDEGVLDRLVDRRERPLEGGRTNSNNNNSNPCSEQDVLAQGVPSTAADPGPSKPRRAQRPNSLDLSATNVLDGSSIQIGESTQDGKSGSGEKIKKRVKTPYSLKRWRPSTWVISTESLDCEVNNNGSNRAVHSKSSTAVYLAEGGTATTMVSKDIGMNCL
# Experiment Summary: DSF Tm panel
# Type: binding
# Run Conditions: 10 μM compound

Compound | Study Target | ΔTm at 10 µM, °C
Cc1cc(Br)ccc1CNC(=O)Nc1ccc2cc1OCCOCCNc1ccn3ncc-2c3n1 [compound 24] | BMPR2A (Homo sapiens, UniProt Q13873) | 2.3
Cc1ccc(F)cc1CNC(=O)Nc1ccc2cc1OCCOCCNc1ccn3ncc-2c3n1 [compound 26] | BMPR2A (Homo sapiens, UniProt Q13873) | 3.4
COc1ccc(CNC(=O)Nc2ccc3cc2OCCOCCNc2ccn4ncc-3c4n2)cc1F [compound 32] | BMPR2A (Homo sapiens, UniProt Q13873) | 4.4
COc1cccc(CNC(=O)Nc2ccc3cc2OCCOCCNc2ccn4ncc-3c4n2)c1 [compound 30] | BMPR2A (Homo sapiens, UniProt Q13873) | 4.3
CN1CCN(C(=O)Nc2ccc3cc2OCCOCCNc2ccn4ncc-3c4n2)CC1 [compound 35] | BMPR2A (Homo sapiens, UniProt Q13873) | 3.5
C[C@H](NC(=O)Nc1ccc2cc1OCCOCCNc1ccn3ncc-2c3n1)c1ccccc1 [compound 34] | BMPR2A (Homo sapiens, UniProt Q13873) | 5.1
COc1ccccc1CNC(=O)Nc1ccc2cc1OCCOCCNc1ccn3ncc-2c3n1 [compound 29] | BMPR2A (Homo sapiens, UniProt Q13873) | 4
O=C(NCc1ccc(Cl)cc1Cl)Nc1ccc2cc1OCCOCCNc1ccn3ncc-2c3n1 [compound 20] | BMPR2A (Homo sapiens, UniProt Q13873) | 1.1
Cc1cc(Cl)ccc1CNC(=O)Nc1ccc2cc1OCCOCCNc1ccn3ncc-2c3n1 [compound 23] | BMPR2A (Homo sapiens, UniProt Q13873) | 1.5
O=C(NCc1ccccc1)Nc1ccc2cc1OCCOCCNc1ccn3ncc-2c3n1 [compound 16] | BMPR2A (Homo sapiens, UniProt Q13873) | 4.4
O=C(NCc1ccc(C(F)(F)F)cc1)Nc1ccc2cc1OCCOCCNc1ccn3ncc-2c3n1 [compound 28] | BMPR2A (Homo sapiens, UniProt Q13873) | 3.2
COc1ccc(CNC(=O)Nc2ccc3cc2OCCOCCNc2ccn4ncc-3c4n2)cc1 [compound 31] | BMPR2A (Homo sapiens, UniProt Q13873) | 4.6
O=C(NCc1ccc(Cl)cc1F)Nc1ccc2cc1OCCOCCNc1ccn3ncc-2c3n1 [compound 21] | BMPR2A (Homo sapiens, UniProt Q13873) | 1.8
O=C(NCc1ccccc1C(F)(F)F)Nc1ccc2cc1OCCOCCNc1ccn3ncc-2c3n1 [compound 27] | BMPR2A (Homo sapiens, UniProt Q13873) | 2.8
O=C(NCc1ccc(Cl)cc1)Nc1ccc2cc1OCCOCCNc1ccn3ncc-2c3n1 [compound 19] | BMPR2A (Homo sapiens, UniProt Q13873) | 2.3
COc1cc(CNC(=O)Nc2ccc3cc2OCCOCCNc2ccn4ncc-3c4n2)ccc1F [compound 33] | BMPR2A (Homo sapiens, UniProt Q13873) | 3.7
O=C(NCc1cccc(Cl)c1)Nc1ccc2cc1OCCOCCNc1ccn3ncc-2c3n1 [compound 18] | BMPR2A (Homo sapiens, UniProt Q13873) | 2.9
O=C(NCc1ccccc1Cl)Nc1ccc2cc1OCCOCCNc1ccn3ncc-2c3n1 [compound 17] | BMPR2A (Homo sapiens, UniProt Q13873) | 2.6
